assayed target: T1, autolytically stable caspase-1 variant (D381 E) (UniProt P29466 120-404, limits assumed)
T1 sequence (looked up): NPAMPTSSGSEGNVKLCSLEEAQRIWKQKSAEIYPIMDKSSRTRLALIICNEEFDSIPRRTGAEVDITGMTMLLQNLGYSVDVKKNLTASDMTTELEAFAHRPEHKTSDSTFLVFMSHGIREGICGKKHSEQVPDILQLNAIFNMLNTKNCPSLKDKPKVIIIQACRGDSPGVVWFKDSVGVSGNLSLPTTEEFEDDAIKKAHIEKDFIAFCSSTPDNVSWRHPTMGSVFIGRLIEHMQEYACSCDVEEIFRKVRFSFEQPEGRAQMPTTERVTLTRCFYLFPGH
protocol description: cell-based or functional assay
Numbered stars: 1 amine (or outer) side, 2 acyl side, 3 side chain; on linkers, the order of the positions; unused ones are H or OH. Square brackets hold non-standard residues; d marks the D form. * marks the point of attachment. AAsp = aza-Asp, O=C(N(CC(=O)[*:3])N[*:1])[*:2]; azaAsp = O=C(N(CC(=O)[*:3])N[*:1])[*:2]; PhPr = N-terminal cap as named (PhPr); Hydrocinnamoyl = O=C(CCc1ccccc1)*; Cbz = O=C(OCc1ccccc1)*
Quick reference: log10 k2 of the listed items.
Give log10 of k2, with k2 taken in M⁻¹ s⁻¹.

Before answering, review these 2 worked examples.
Cbz-DEV[azaAsp]-{(S,S)‑EP‑COOCH2Ph} [Cbz-Asp-Glu-Val-AAsp-(S,S)-EP-COOCH2Ph] : 4.74
Cbz-Glu-Val-[azaAsp]-{(2S,3S)‑EP‑COOEt} [Cbz-Glu-Val-AAsp-(2S,3S)-EP-COOEt] : 4.77

Q: Consider the binder Cbz-IET[azaAsp]-{(R,R)‑EP‑COOCH2Ph} [Cbz-Ile-Glu-Thr-AAsp-(R, R)-EP-COOCH2Ph] . State its measured log10 k2.
Ans: 4.11

Q: Consider the binder PhPr-Val-Ala-[AAsp]-{(2S,3S)‑EP‑COOCH2Ph} [PhPr-Val-Ala-AAsp-(2S, 3S)-EP-COOCH2Ph] . State its measured log10 k2.
Ans: 4.72

Q: Consider the binder Hydrocinnamoyl-Val-Ala-[AAsp]-{(2R,3R)‑EP‑COOCH2Ph} [PhPr-Val-Ala-AAsp-(2R, 3R)-EP-COOCH2Ph] . State its measured log10 k2.
Ans: 3.27

Q: Consider the binder Hydrocinnamoyl-Val-Ala-[AAsp]-{(S,S)‑EP‑COOCH2CH2Ph} [PhPr-Val-Ala-AAsp-(S,S)-EP-COOCH2CH2Ph] . State its measured log10 k2.
Ans: 4.75

Q: Consider the binder Cbz-DEV[azaAsp]-{(S,S)‑EP‑CO-Phe-NH2} [Cbz-Asp-Glu-Val-AAsp-(S,S)-EP-CO-Phe-NH2] . State its measured log10 k2.
Ans: 3.97

Q: Consider the binder Hydrocinnamoyl-Val-Ala-[AAsp]-{(R,R)‑EP‑CO-Phe-NH2} [PhPr-Val-Ala-AAsp-(R,R)-EP-CO-Phe-NH2] . State its measured log10 k2.
Ans: 2.52

Q: Consider the binder PhPr-Val-Ala-[AAsp]-{(S,S)‑EP‑CONHCH2CH(OH)Ph} [PhPr-Val-Ala-AAsp-(S,S)-EP-CONHCH2CH(OH)Ph] . State its measured log10 k2.
Ans: 4.09
